Tested on: SR
Test: NCI tumour cell line growth inhibition, 48 h
Activity calls are given as the source filed them. Rule as the data show it: active = GI50 up to about 1.1 µM and inactive = higher.
Entry note: the call must match one of active, inactive

Reference set (10 entries):
{"compound": "CCCCCCCC1C(C)c2c([nH]c3ccccc23)C2C(=O)N(c3ccc(OC)cc3)C(=O)C21 (configuration not stated)", "label": "inactive"}
{"compound": "COc1ccc(Nc2nc(N)c(C(=O)c3cccs3)s2)cc1", "label": "active"}
{"compound": "COc1ccc(/C(Cl)=C(\\C=O)c2ccccc2)cc1OC", "label": "inactive"}
{"compound": "CC(=O)OC(C)(C)CCC(=O)[C@](C)(O)[C@H]1[C@H](O)C[C@@]2(C)[C@@H]3CC=C4C(C)=C(OC5OC(CO)C(O)C(O)C5O)C(=O)C[C@@H]4[C@]3(C)C(=O)C[C@]12C (some centres not stated)", "label": "inactive"}
{"compound": "Oc1nnc2c(-c3ccccc3)n[nH]c2n1", "label": "inactive"}
{"compound": "O=C(O)c1ccc(Nc2nc3nn(Cc4ccccc4)cc3c(=O)s2)cc1", "label": "inactive"}
{"compound": "CC1(C)OCC2OC3([C@@H]4OC(C)(C)O[C@H]4CO)OC(C)(C)OC3C2O1 (some centres not stated)", "label": "inactive"}
{"compound": "Cc1cc(C)n(C(=O)C(C)Sc2nnc(SC(C)C(=O)n3nc(C)cc3C)s2)n1 (configuration not stated)", "label": "inactive"}
{"compound": "CC1CC[C@@]2(OC1)OC1C[C@H]3[C@@H]4CC[C@H]5CC(OC6OC(CO)C(OC7OC(CO)C(O)C(O)C7O)C(O)C6O)CCC5(C)[C@H]4CCC3(C)C1[C@@H]2C (some centres not stated)", "label": "inactive"}
{"compound": "CCOC(=O)C1C(=O)C=C(c2cc(C)ccc2O)CC1c1cccc(Cl)c1 (configuration not stated)", "label": "inactive"}

Then there is this compound:
Hello, I am checking results. What call was entered for C=C1C(=O)O[C@H]2C/C(C=O)=C\[C@H]3O[C@H]3/C(COC(=O)C(C)C)=C/CC12 (some centres not stated) ?
inactive

---

Tested on: LOX IMVI
Test: NCI tumour cell line growth inhibition, 48 h
Active and inactive are the calls of the source. No stated cut-off is given here; in the data, active = GI50 up to about 1.1 µM and inactive = higher.
Entry note: the call must match one of T for active, F for inactive

{"compound": "CCC(CCCCC1CC[C@H]2CC(=O)C[C@@H]12)OC (stereo partly specified)", "label": "F"}
{"compound": "CC(=O)C1C(=O)C(=O)N(c2ccc([N+](=O)[O-])cc2)C1=O (stereo unspecified)", "label": "F"}
{"compound": "C=C[C@]1(C)CC(O)C2C(=C)C(=O)OC2[C@H]1C(=C)C=O (stereo partly specified)", "label": "T"}
{"compound": "COc1cc2c(cc1OCCCC(=O)Nc1cc(C(=O)Nc3cc(C(=O)Nc4cc(C(=O)NCCCN(C)C)n(C)n4)n(C)c3)n(C)c1)N=CC1CCCN1C2=O (stereo unspecified)", "label": "F"}
{"compound": "CN1C(C)(C)CC(=O)C(Br)C1(C)C (stereo unspecified)", "label": "F"}
{"compound": "O=C1c2ccccc2CC12Cc1cc3c(cc1C2)CCC3", "label": "F"}
{"compound": "COc1ccc2nc3n(c2c1)CCc1cc(OC)c(OC)cc1-3", "label": "F"}
{"compound": "COc1ccc2cc(C(=O)NCCCNC(=O)c3ccc4c(OC)c(OC)ccc4c3)ccc2c1OC", "label": "F"}

Then there is this compound:
Hello, I am checking results. What call was entered for CC(=O)OCC1OC(n2c(-c3ccc(Cl)cc3)ccc(C#N)c2=S)C(OC(C)=O)C(OC(C)=O)C1OC(C)=O (stereo unspecified) ?
F
